- experimental target: alfa-glucosidase
- assay notes: Measurement of alfa-glucosidase inhibitory activity (Example 11; p-nitrophenyl-alfa-D-glucopyranoside, A405)
- reported conditions: 37° C., 5 minutes incubation
readout name: pIC50
The quantity pIC50 is defined as the negative base-10 logarithm of the molar concentration.

Past entries and their recorded results:
molecule="O=C(O[C@@H]1Cc2c(O)cc(O)cc2O[C@@H]1c1cc(O)c(O)c2c(=O)c(O)cccc12)c1cc(O)c(O)c(O)c1 [Compound 14, theaflavanin 3-O-gallate]" value=3.71
molecule="O=C(O[C@@H]1Cc2c(O)cc(O)cc2O[C@@H]1c1ccc(O)c(O)c1)c1cc(O)c(=O)c2c(O)c(O)cc([C@H]3Oc4cc(O)cc(O)c4C[C@H]3OC(=O)c3cc(O)c(O)c(O)c3)c2c1 [Compound 5, theaflavate A]" value=3.94
molecule="O=C(O[C@@H]1Cc2c(O)cc(O)cc2O[C@@H]1c1ccc(O)c(O)c1)c1cc(O)c(=O)c2c(O)c(O)c(O)cc2c1 [Compound 12]" value=3.80
molecule="O=C(O[C@@H]1Cc2c(O)cc(O)cc2O[C@@H]1c1cc(=O)c(O)c2c(O)c(O)c(O)cc2c1)c1cc(O)c(O)c(O)c1 [Compound 4, epitheaflagallin-3-O-gallate, reference compound]" value=3.74
molecule="O=c1c(O)cccc2cc(O)c(O)c(O)c12 [Compound 1, purprogallin]" value=2.91

Just so you know, measured pIC50 for O=C(O[C@@H]1Cc2c(O)cc(O)cc2O[C@@H]1c1cc(O)c(=O)c2c(O)c(O)ccc2c1)c1cc(O)c(O)c(O)c1 [Compound 15, EGCG-catechol] came out at 3.99

Lab book: pIC50 of O=C(O)c1cc(O)c(=O)c2c(O)c(O)cc([C@H]3Oc4cc(O)cc(O)c4C[C@H]3OC(=O)c3cc(O)c(O)c(O)c3)c2c1 [Compound 11, epitheaflavic acid-3-O-gallate] noted as 3.54
